Below, each entry is listed with its recorded microsomal CLint at 1 µM.
Assay: Microsome stability, rat liver microsomes
Format: in vitro ADME
Conditions: NADPH, 37 °C, pH 7.4, read-out: rLM CLint (μg/min/mg)
PROPERTY MEASURED: microsomal CLint at 1 µM (µL/min/mg)

structure_as_smiles=N/C(=N\C(=O)c1nc(Cl)c(NCc2ccc(I)cc2)nc1N)NCCCOc1ccc(Cl)cc1 obs_value=49
structure_as_smiles=N/C(=N\C(=O)c1nc(Cl)c(NCc2ccc(I)cc2)nc1N)NCC1CCN(CCc2ccccc2)CC1 obs_value=29
structure_as_smiles=Nc1nc(NCc2ccc(I)cc2)c(Cl)nc1C(=O)NCCN1CCN(Cc2ccccc2)CC1 obs_value=201
